Reported IC50, Murine IL-21R-BaF3 Neutralization Assay values for the following binders.
# system: murine IL-21R expressed on cells (murine, UniProt Q9JHX3 20-529)
# Sequence (Q9JHX3 20-529 limits assumed): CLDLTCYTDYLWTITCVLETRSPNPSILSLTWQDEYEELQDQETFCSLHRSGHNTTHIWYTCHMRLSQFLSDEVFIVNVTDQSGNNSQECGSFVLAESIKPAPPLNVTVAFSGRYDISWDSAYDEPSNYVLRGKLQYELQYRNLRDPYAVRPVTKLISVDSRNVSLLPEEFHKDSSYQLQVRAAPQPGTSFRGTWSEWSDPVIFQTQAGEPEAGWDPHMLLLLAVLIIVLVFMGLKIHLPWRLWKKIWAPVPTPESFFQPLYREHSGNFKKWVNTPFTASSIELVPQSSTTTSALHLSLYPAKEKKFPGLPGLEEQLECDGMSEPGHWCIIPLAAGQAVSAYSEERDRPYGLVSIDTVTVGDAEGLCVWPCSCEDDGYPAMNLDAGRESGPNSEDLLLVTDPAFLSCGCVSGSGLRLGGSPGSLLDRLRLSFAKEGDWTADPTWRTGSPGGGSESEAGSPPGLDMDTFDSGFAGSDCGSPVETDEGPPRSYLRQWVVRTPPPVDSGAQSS
# protocol-notes: cell-based or functional assay
outcome-measure: IC50, Murine IL-21R-BaF3 Neutralization Assay (nM)

>>> reported_value("scFv L15 (scFv) scFv: QVQLQESGPGLVKTSETLSLTCAVSGYSISSGYYWGWIRQPPGKGLEWIGSISHTGNTYYNPPLKSRVTISVDTSKNQFSLKLSSVTAADTAVYYCARGGGISRPEYWGKGTLVTVSSGGGGSGGGGSGGGGSALSSELTQDPPVSVALGQTVTLTCQGDSLRTYYASWYQQKSGQAPILLLYGKHKRPSGIPDRFSGSTSGDTASLTITGAQAEDEADYYCSTRAIHGNPHVLFGGGTQLTVL")
53.5
>>> reported_value("scFv L18 (scFv) scFv: QVQLQESGPGLVKTSETLSLTCAVSGYSISSGYYWGWIRQPPGKGLEWIGSISHTGNTYYNPPLKSRVTISVDTSKNQFSLKLSSVTAADTAVYYCARGGGISRPEYWGKGTLVTVSSGGGGSGGGGSGGGGSALSSELTQDPPVSVALGQTVTLTCQGDSLRTYYASWYQQKSGQAPILLLYGKHKRPSGIPDRFSGSTSGDTASLTITGAQAEDEADYYCVTRSVKGNPHVLFGGGTQLTVL")
8.34
>>> reported_value("scFv L12 (scFv) scFv: QVQLQESGPGLVKTSETLSLTCAVSGYSISSGYYWGWIRQPPGKGLEWIGSISHTGNTYYNPPLKSRVTISVDTSKNQFSLKLSSVTAADTAVYYCARGGGISRPEYWGKGTLVTVSSGGGGSGGGGSGGGGSALSSELTQDPPVSVALGQTVTLTCQGDSLRTYYASWYQQKSGQAPILLLYGKHKRPSGIPDRFSGSTSGDTASLTITGAQAEDEADYYCVARGTRGNPHVLFGGGTQLTVL")
87.8
>>> reported_value("scFv L25 (scFv) scFv: QVQLQESGPGLVKTSETLSLTCAVSGYSISSGYYWGWIRQPPGKGLEWIGSISHTGNTYYNPPLKSRVTISVDTSKNQFSLKLSSVTAADTAVYYCARGGGISRPEYWGKGTLVTVSSGGGGSGGGGSGGGGSALSSELTQDPPVSVALGQTVTLTCQGDSLRTYYASWYQQKSGQAPILLLYGKHKRPSGIPDRFSGSTSGDTASLTITGAQAEDEADYYCTTRSNKGNPHVLFGGGTQLTVL")
15.6
>>> reported_value("scFv L1 (scFv) scFv: QVQLQESGPGLVKTSETLSLTCAVSGYSISSGYYWGWIRQPPGKGLEWIGSISHTGNTYYNPPLKSRVTISVDTSKNQFSLKLSSVTAADTAVYYCARGGGISRPEYWGKGTLVTVSSGGGGSGGGGSGGGGSALSSELTQDPPVSVALGQTVTLTCQGDSLRTYYASWYQQKSGQAPILLLYGKHKRPSGIPDRFSGSTSGDTASLTITGAQAEDEADYYCASRSVSGNPHVLFGGGTQLTVL")
28.8

Every entry's value here was drawn from patent US20120276102A1.
